Each recorded value in this set is attributed to PubChem BioAssay (NCI).

Test system: MOLT-4 leukemia
protocol description: NCI tumour cell line growth inhibition, 48 h; in the data active = GI50 below about 0.43 µM; inactive = the rest
Please reply with one of these outcomes: 1 (yes) for active, 0 (no) for inactive

| molecule | label value |
| --- | --- |
| CCN(CC)c1ccc2c(c1)OC(N)=C(C#N)C2c1cc(OC)c2c(c1)OCO2 (centres undefined) | 1 (yes) |
| O=C(Nc1nc2ccc(C(F)(F)F)cc2s1)c1cc(Cl)ccc1O | 0 (no) |
| C=CCCCCC/C=C\[C@H](O)C#CC#C/C=C/CO | 0 (no) |
| COc1ccc(C(C)=O)cc1N1C(=O)C2C(C1=O)C1(c3ccccc3)C(=O)C2(c2ccccc2)C(c2ccc(C)cc2)=C1c1ccc(C)cc1 (centres undefined) | 0 (no) |
| CCCCCCCCCCCCOC1C(C(COC2OC(C3COC(C)(C)O3)C3OC(C)(C)OC23)NC(=O)Nc2ccc(C(=O)O)cc2)OC2OC(C)(C)OC21 (centres undefined) | 0 (no) |
| CN(C)CCCNC(=O)c1cc2[nH]c3c(cnc4ccc([N+](=O)[O-])cc43)c(=O)c2n1C | 0 (no) |
| N#CC(=C1C=CC(=NO)C=C1)c1ccccc1 | 0 (no) |
| O=C1/C(=C/c2ccc(Br)cc2)COc2ccc(O)c(O)c21 | 0 (no) |

Then there is this molecule:
Input: # outcome recorded in this test, key = COc1ccc(-n2cc(-c3cc(OC)c(OC)c(OC)c3)c(C(=O)C(F)(F)F)c2C)cc1
Output: 0 (no)
